MEASUREMENT_PROTOCOL: qHTS assay to identify small molecule agonists of the hypoxia (HIF-1) signaling pathway - cell viability counter screen (AID 1224844); also: nearly all actives have a fitted effect of over 50% in size
CONDITION: HRE-bla ME-180 viability, CellTiter-Glo luminescence, 17 h; series mostly up to 76.8 µM
Records with an inconclusive call do not appear. The source made the active and inactive calls. Calls follow the shape of the full dose curve.
# valid calls are active, inactive; nothing else

Query string: Query: recorded result category for "Oc1cc2c(cc1O)[C@H]1c3ccc(O)c(O)c3OC[C@@]1(O)C2" in this test
Result string: inactive

---
Query string: Query: recorded result category for "O=C(/C=C/c1ccccc1)OCCc1ccccc1" in this test
Result string: inactive

Query string: Query: recorded result category for "N#CCc1ccc(Cl)cc1Cl" in this test
Result string: inactive

Query string: Query: recorded result category for "C[C@@H](O[C@H]1OCCN(Cc2n[nH]c(=O)[nH]2)[C@H]1c1ccc(F)cc1)c1cc(C(F)(F)F)cc(C(F)(F)F)c1" in this test
Result string: active

Query string: Query: recorded result category for "CC(CO)CO" in this test
Result string: inactive

Query string: Query: recorded result category for "C[C@@H]1CC(=O)NN=C1c1ccc(NN=C(C#N)C#N)cc1" in this test
Result string: inactive

Query string: Query: recorded result category for "CC1=C(CC=O)C(C)(C)CCC1" in this test
Result string: inactive

Query string: Query: recorded result category for "CN1C(C(=O)Nc2ccccn2)=C(O)c2sccc2S1(=O)=O" in this test
Result string: inactive

Query string: Query: recorded result category for "c1ccc(C[n+]2cccc3ccccc32)cc1" in this test
Result string: inactive

---

STUDY_SYSTEM: Luciferin 4-monooxygenase (Photinus pyralis)
MEASUREMENT_PROTOCOL: qHTS assay to identify small molecule inhibitors of firefly luciferase (AID 1224835); also: nearly all actives have a fitted effect of over 25% in size
CONDITION: purified P. pyralis luciferase, luminescence inhibition; series mostly up to 52.9 µM
Records with an inconclusive call do not appear. Active and inactive are the calls of the source. Calls follow the shape of the dose curve; as a rule, active = well fitted inhibition curve with a large enough effect in the repeat runs; inconclusive = weak or mixed curves; inactive = flat fitted curve, though single readings scatter.
# valid calls are true = active, false = inactive; nothing else

Query string: Query: recorded result category for "Nc1ccc(N=Nc2ccccc2)c(N)c1" in this test
Result string: true

Query string: Query: recorded result category for "O=Cc1c2ccccc2c(Cl)c2ccccc12" in this test
Result string: false

Query string: Query: recorded result category for "C=C/C(C)=C/C/C=C(\C)CCC=C(C)C" in this test
Result string: false

---
Query string: Query: recorded result category for "C[C@@H]1CN(CCCn2c3ccccc3c3ccccc32)C[C@H](C)N1" in this test
Result string: false

Query string: Query: recorded result category for "CCCCCCCCCCCCCCN(CCO)CCO" in this test
Result string: false

Query string: Query: recorded result category for CCCCC(CC)CN (configuration not stated) in this test
Result string: false

Query string: Query: recorded result category for "CC(C)=CCC/C(C)=C/CC/C(C)=C/CCC(=O)OC/C=C(\C)CCC=C(C)C" in this test
Result string: false

---

MEASUREMENT_PROTOCOL: qHTS assay for small molecule activators of the heat shock response signaling pathway - cell viability counter screen (AID 743209); also: nearly all actives have a fitted effect of over 50% in size
CONDITION: HSE-bla HeLa viability, CellTiter-Glo luminescence, 5 h; series mostly up to 62.6 µM
Records with an inconclusive call do not appear. The source made the active and inactive calls. Calls come from the whole dose curve; as a rule, active = well fitted cell-killing curve with a large enough effect in the repeat runs; inconclusive = weak or mixed curves, or effect the other way; inactive = no such curve, though single readings can be large or run the other way.
# valid calls are active, inactive; nothing else

Query string: Query: recorded result category for "NCCNCCO" in this test
Result string: inactive

Query string: Query: recorded result category for "O=C(CCc1ccc(O)cc1)c1c(O)cc(O)cc1O" in this test
Result string: inactive

Query string: Query: recorded result category for "CC[C@]1(O)C[C@H]2CN(CCc3c([nH]c4ccccc34)[C@@](C(=O)OC)(c3cc4c(cc3OC)N(C=O)[C@H]3[C@@](O)(C(=O)OC)[C@H](OC(C)=O)[C@]5(CC)C=CCN6CC[C@]43[C@@H]65)C2)C1" in this test
Result string: inactive

Query string: Query: recorded result category for "CC(C)=CCC/C(C)=C/CC/C(C)=C/C(=O)OCC(=O)[C@@]1(O)CC[C@H]2[C@@H]3CCC4=CC(=O)C=C[C@]4(C)[C@H]3[C@@H](O)C[C@@]21C" in this test
Result string: inactive

Query string: Query: recorded result category for "CN(C)CCC=C1c2ccccc2C=Cc2ccccc21" in this test
Result string: inactive

Query string: Query: recorded result category for "COC(=O)c1nc(Cl)c(Cl)nc1N" in this test
Result string: active

Query string: Query: recorded result category for "CN1C[C@H](C(=O)N[C@]2(C)O[C@@]3(O)[C@@H]4CCCN4C(=O)[C@H](Cc4ccccc4)N3C2=O)C[C@@H]2c3cccc4[nH]cc(c34)C[C@H]21" in this test
Result string: inactive

Query string: Query: recorded result category for "C/C=C\C/C=C/CCCCCCCCOC(C)=O" in this test
Result string: inactive

---
Query string: Query: recorded result category for "Cc1cc(C)c(N)cc1C" in this test
Result string: inactive

---

For each entry below, report its activity change, positive = activation value.
MEASUREMENT_PROTOCOL: qHTS assay to identify small molecule agonists of the estrogen related receptor (ERR) signaling pathway from Tox21 library (AID 1224849); also: % is scaled to controls: 0 for no effect and ±100 for the full control effect; nearly all actives have a fitted effect of over 15% in size
CONDITION: ERR reporter cell line, ONE-Glo luciferase, 18 h; at 92.4 µM (top of the series) unless noted
Calls of active or inactive are those of the source. Calls come from the whole dose curve.

Query string: I am curious: what activity change, positive = activation value has been reported for "CCC(C)(C)OC" ?
Result string: -8.72% (inactive)

Query string: I am curious: what activity change, positive = activation value has been reported for "COc1cc(C(=O)NCCCCCC(=O)O)cc(OC)c1OC" ?
Result string: 1.72% [at 42.5 µM] (inactive)

Alright, here's another molecule for you.
Query string: I am curious: what activity change, positive = activation value has been reported for "CC(=O)Nc1ccc(C)cc1C" ?
Result string: 0.262% (inactive)

---

MEASUREMENT_PROTOCOL: qHTS assay to identify small molecule antagonists of the peroxisome proliferator-activated receptor delta (PPARd) signaling pathway - cell viability counter screen (AID 743213); also: nearly all actives have a fitted effect of over 50% in size
CONDITION: PPARd-bla HEK293H viability, CellTiter-Glo luminescence, 17 h; series mostly up to 62 µM
Inconclusive results are not listed. Activity calls are given as the source filed them. Calls come from the whole dose curve; as a rule, active = well fitted cell-killing curve with a large enough effect in the repeat runs; inconclusive = weak or mixed curves; inactive = no such curve, though single readings can be large or run the other way.
# valid calls are active, inactive; nothing else

Completed entries (count: 2):
Query string: Query: recorded result category for "FC(F)(F)c1ccccc1Cl" in this test
Result string: inactive

Query string: Query: recorded result category for "CC1(C)O[C@@H]2C[C@H]3[C@@H]4C[C@H](F)C5=CC(=O)C=C[C@]5(C)[C@H]4[C@@H](O)C[C@]3(C)[C@]2(C(=O)CO)O1" in this test
Result string: inactive

---
Query string: Query: recorded result category for "C[C@]12CC[C@@H]3c4ccc(O)cc4CC[C@H]3[C@@H]1CC[C@@H]2OC(=O)CCC1CCCC1" in this test
Result string: inactive

Query string: Query: recorded result category for "O=C1Cc2ccccc2N1c1c(Cl)cccc1Cl" in this test
Result string: inactive

Query string: Query: recorded result category for "NCCNCCO" in this test
Result string: inactive

Query string: Query: recorded result category for "CCOC(=O)c1ccccc1C(=C1C=C(Br)C(=O)C(Br)=C1)c1cc(Br)c(O)c(Br)c1" in this test
Result string: inactive

Query string: Query: recorded result category for "O=C(O)c1cccc(-c2noc(-c3ccccc3F)n2)c1" in this test
Result string: inactive

Query string: Query: recorded result category for "CCCCCC[C@@H](O)C/C=C\CCCCCCCC(=O)O" in this test
Result string: active

Query string: Query: recorded result category for "O=C1c2ccccc2C(=O)c2c(O)c(O)cc(O)c21" in this test
Result string: inactive

Query string: Query: recorded result category for "CCOC(=O)c1ccc(OCCN2C[C@H](O)[C@@H](O)[C@H](O)[C@H]2CO)cc1" in this test
Result string: inactive

Query string: Query: recorded result category for "Cc1ccc(C(C)(C)O)cc1" in this test
Result string: inactive

Query string: Query: recorded result category for "O=C(/C=C/c1ccccc1)OCCc1ccccc1" in this test
Result string: inactive

---

MEASUREMENT_PROTOCOL: qHTS assay to identify small molecule agonists of the farnesoid-X-receptor (FXR) signaling pathway - cell viability counter screen (AID 743218); also: nearly all actives have a fitted effect of over 45% in size
CONDITION: FXR-bla HEK293T viability, CellTiter-Glo luminescence, 16 h; series mostly up to 62.6 µM
Inconclusive results are not listed. Calls of active or inactive are those of the source. Calls come from the whole dose curve; as a rule, active = well fitted cell-killing curve with a large enough effect in the repeat runs; inconclusive = weak or mixed curves, or effect the other way; inactive = no such curve, though single readings can be large or run the other way.
# valid calls are label 1 = active, label 0 = inactive; nothing else

Query string: Query: recorded result category for "CC(C)=CCC1C(=O)N(c2ccccc2)N(c2ccccc2)C1=O" in this test
Result string: label 0

---
Query string: Query: recorded result category for "CN1C[C@H](C(=O)N[C@]2(C)O[C@@]3(O)[C@@H]4CCCN4C(=O)[C@H](Cc4ccccc4)N3C2=O)C[C@@H]2c3cccc4[nH]cc(c34)C[C@H]21" in this test
Result string: label 1

Query string: Query: recorded result category for "CCc1ccccc1" in this test
Result string: label 0

Query string: Query: recorded result category for "CC(CO)CO" in this test
Result string: label 0

Query string: Query: recorded result category for "C[C@H]1c2cccc(O)c2C(O)=C2C(=O)[C@]3(O)C(O)=C(C(N)=O)C(=O)[C@@H](N(C)C)[C@@H]3[C@@H](O)[C@@H]21" in this test
Result string: label 0

Query string: Query: recorded result category for "COc1ccc(OC(=O)N(CC(=O)O)Cc2ccc(OCCc3nc(-c4ccccc4)oc3C)cc2)cc1" in this test
Result string: label 0

Query string: Query: recorded result category for "COc1ncnc(NS(=O)(=O)c2ccc(N)cc2)c1OC" in this test
Result string: label 0

Query string: Query: recorded result category for CC1CC(C)C(=O)C1=O (stereo not drawn) in this test
Result string: label 0

Query string: Query: recorded result category for "O=C(CCc1ccc(O)cc1)c1c(O)cc(O)cc1O" in this test
Result string: label 0

Query string: Query: recorded result category for "Oc1cccc(O)c1O" in this test
Result string: label 0
